target: T1, 4H971-AA
T1 chain: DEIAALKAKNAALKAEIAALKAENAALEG
protocol text: two-hybrid library CCmax;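 also: natural log of median RNA to DNA barcode read ratio; higher means stronger binding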
assay context: mean of both orientations
measured endpoint: interaction score

[[record]]
binder = "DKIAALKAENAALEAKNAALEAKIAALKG [4H2742-AA]"
value_measured = -1.91

[[record]]
binder = "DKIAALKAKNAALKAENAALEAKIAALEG [4H3029-AA]"
value_measured = -2.45

[[record]]
binder = "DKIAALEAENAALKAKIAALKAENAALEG [4H2283-AA]"
value_measured = -0.878

[[record]]
binder = "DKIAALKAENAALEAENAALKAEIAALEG [4H2713-AA]"
value_measured = -1.57

[[record]]
binder = "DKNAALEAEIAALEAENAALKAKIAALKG [4H3102-AA]"
value_measured = -0.422

